Would you kindly list inhibition at 10 µM for each of these molecules?
target: human VR1 (Homo sapiens); construct: expressed in transfected cells; host or cells: HEK293; assay: Human VR1 functional assay (FLIPR intracellular Ca2+); type: cell-based; settings: inhibition of capsaicin response, 10 μM; read-out: h % I (10 μM)
Numbers only, in %.

smiles-text	inhibition at 10 µM, %
CC(C)(C)OC(=O)Nc1cccc(-c2ccc(NC(=O)CCc3ccc(C(C)(C)C)cc3)cc2)c1	30
CC(C)(C)c1ccc(CCC(=O)Nc2ccccc2-c2ccc(CO)cc2)cc1	70

From here, focus on the item given below.
Tell me inhibition at 10 µM reported for "Cc1cc(NC(=O)CCc2ccc(C(C)(C)C)cc2)ccc1-c1cccc(O)c1"
101

====

Would you kindly list inhibition at 5 µM for each of these compounds?
Biological target: human VR1 (Homo sapiens)
Construct: expressed in transfected cells; host or cells: HEK293
Test: Human VR1 functional assay (FLIPR intracellular Ca2+)
Assay type: cell-based
Settings: inhibition of capsaicin response, 5 μM; read-out: h % I (5 μM)
Experimental: The functional activity of the test compounds was determined by measuring changes in intracellular calcium concentration using a Ca^2+-sensitive fluorescent dye and FLIPR™ technology. Increases in Ca^2+ concentration were readily detected upon challenge with capsaicin. […] EC50 or IC50 values were determined from dose-response studies. […]

smiles-text	inhibition at 5 µM
Cc1cc(NC(=O)CCc2ccc(C(C)(C)C)cc2)cnc1-n1ccnc1	91%
O=C(CCc1ccc(C(F)(F)F)cc1)Nc1cnc(-n2ccnc2)c(C(F)(F)F)c1	101%

From here, focus on the item given below.
Please respond with reported inhibition at 5 µM (system human VR1 (Homo sapiens)) for "Cc1cc(NC(=O)CCc2ccc(C(C)(C)C)cc2)ccc1-c1ccc(CO)cc1" .
79%

====

target: human VR1 (Homo sapiens)
Would you kindly list pKi for each of these compounds?
Numbers only, as −log10 of the molar value.

Answered examples (2):
compound	pKi
Cc1cn(-c2ccc(NC(=O)CCc3ccc(C(F)(F)F)cn3)cc2C(F)(F)F)cn1 [Cpd 233]	6.00
CC(C)(C)c1ccc(CCC(=O)Nc2ccc(-c3cccc(O)c3)nc2)cc1 [Cpd 129]	7.39

From here, focus on the item given below.
Tell me pKi reported for CC(C)(C)c1ccc(CCC(=O)Nc2cc(F)c(-c3ccncc3)c(F)c2)cc1 [Cpd 169]
7.32

====

target: human VR1 (Homo sapiens, UniProt Q8NER1); construct: expressed in transfected cells; host or cells: HEK293; test: Human VR1 [3H]RTX binding assay; conditions: inhibition of [3H]RTX binding at 1 μM
Sequence (Q8NER1 whole entry): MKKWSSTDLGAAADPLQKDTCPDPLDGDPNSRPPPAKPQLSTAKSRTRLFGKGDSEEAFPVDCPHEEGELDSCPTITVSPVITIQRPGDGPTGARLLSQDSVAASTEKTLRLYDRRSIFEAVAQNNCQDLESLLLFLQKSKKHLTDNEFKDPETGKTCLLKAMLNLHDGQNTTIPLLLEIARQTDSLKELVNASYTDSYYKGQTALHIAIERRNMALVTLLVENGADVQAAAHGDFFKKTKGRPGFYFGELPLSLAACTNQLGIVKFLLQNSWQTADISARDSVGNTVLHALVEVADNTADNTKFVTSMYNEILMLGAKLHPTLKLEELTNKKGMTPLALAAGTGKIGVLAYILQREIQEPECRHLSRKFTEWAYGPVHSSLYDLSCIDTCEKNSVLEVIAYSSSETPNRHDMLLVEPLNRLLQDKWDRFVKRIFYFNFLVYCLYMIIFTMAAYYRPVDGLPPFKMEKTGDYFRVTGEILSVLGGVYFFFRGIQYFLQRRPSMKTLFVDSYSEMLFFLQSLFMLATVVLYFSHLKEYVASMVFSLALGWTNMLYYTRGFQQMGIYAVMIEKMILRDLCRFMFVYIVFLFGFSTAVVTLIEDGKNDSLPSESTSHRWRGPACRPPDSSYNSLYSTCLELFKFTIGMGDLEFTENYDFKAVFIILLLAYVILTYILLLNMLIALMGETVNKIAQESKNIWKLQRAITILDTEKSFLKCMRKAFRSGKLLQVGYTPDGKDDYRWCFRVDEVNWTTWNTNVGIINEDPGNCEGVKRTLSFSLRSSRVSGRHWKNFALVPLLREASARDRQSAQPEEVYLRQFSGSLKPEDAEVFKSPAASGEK
Would you kindly list h Binding % I (1 μM) for each of these compounds?
Give bare numbers, in %.

Answered examples (5):
smiles-text	result-units	h Binding % I (1 μM)
CC(=O)Nc1cccc(-c2ccc(NC(=O)CCc3ccc(C(F)(F)F)cc3)cn2)c1	%	16
CC(=O)Nc1cccc(-c2ccc(NC(=O)CCc3ccc(C(F)(F)F)cc3)c3ccccc23)c1	%	1
CC(C)(C)c1ccc(CCC(=O)Nc2ccc(-c3cccc(C(N)=O)c3)c(C(=O)O)c2)cc1	%	1
CC(C)(C)c1ccc(CCC(=O)Nc2cccc(-c3cccc(O)c3)n2)cc1	%	9
O=C(CCc1ccc(C(F)(F)F)cc1)Nc1ccc(-c2cccc(CO)c2)nc1	%	9

Give h Binding % I (1 μM) for each of the items listed below.
1. CC(C)(C)c1ccc(CCC(=O)Nc2cccc(-c3cccc(O)c3)c2)cc1
2. CC(=O)c1cccc(-c2ccc(NC(=O)CCc3ccc(C(C)(C)C)cc3)cc2)c1
3. CC(C)(C)c1ccc(CCC(=O)Nc2ccc(-c3cccc(C(F)(F)F)c3)cc2)cc1
4. Cn1cnc(-c2ccc(NC(=O)CCc3ccc(C(C)(C)C)cc3)cc2)c1
5. CC(C)(C)c1ccc(CCC(=O)Nc2ccc(-c3ccc4cc[nH]c4c3)cc2)cc1
6. CC(C)(C)c1ccc(CCC(=O)Nc2ccc(-c3cccc(C(N)=O)c3)c(F)c2)cc1
7. CC(C)(C)c1ccc(CCC(=O)Nc2ccc(-n3cnc(Cl)c3Cl)cc2)cc1

1: 4; 2: 35; 3: 36; 4: 56; 5: 39; 6: 27; 7: 100

Tell me h Binding % I (1 μM) reported for "O=C(CCc1ccc(C(F)(F)F)cc1)Nc1ccc(-c2ccncc2)c2ccccc12"
1

====

Heads up, these compounds all have Ki values measured for human VR1 (Homo sapiens).
Give bare numbers, in nM.

compound	experimental-system	result-units	Ki
CC(C)(C)c1ccc(CCC(=O)Nc2ccc(-c3cccc(O)c3)c(F)c2)cc1 [Cpd 61]	human VR1 (Homo sapiens)	nM	53.3
CC(=O)Nc1cccc(-c2ccc(NC(=O)CCc3ccc(C(C)(C)C)cc3)cc2F)c1 [Cpd 57]	human VR1 (Homo sapiens)	nM	266
Cc1cn(-c2ccc(NC(=O)/C=C/c3ccc(S(=O)(=O)C(F)(F)F)cc3)cc2C(F)(F)F)cn1 [Cpd 205]	human VR1 (Homo sapiens)	nM	44.4
O=C(CCc1ccc(C(F)(F)F)cc1)Nc1cnc(-n2cnc(Cl)c2Cl)c(C(F)(F)F)c1 [Cpd 251]	human VR1 (Homo sapiens)	nM	134
O=C(CCc1ccc(C(F)(F)F)cc1)Nc1ccc(-c2ccc(O)cc2)cc1 [Cpd 78]	human VR1 (Homo sapiens)	nM	289

Give Ki for each of the items listed below.
1. O=C(CCc1ccc(C(F)(F)F)cc1)Nc1ccc(-c2cccc(O)c2)c(C(F)(F)F)c1 [Cpd 206]
2. O=C(/C=C/c1ccc(SC(F)(F)F)cc1)Nc1ccc(-n2cnc(Cl)c2Cl)c(C(F)(F)F)c1 [Cpd 228]
3. O=C(CCc1ccc(C(F)(F)F)cc1)Nc1ccc(-c2cccc(O)c2)cc1 [Cpd 77]
4. CC(C)(C)c1ccc(CCC(=O)Nc2ccc(-c3cccc(O)c3)cc2)s1 [Cpd 65]

1: 64.6; 2: 41.6; 3: 134; 4: 168

====

Target: human VR1 (Homo sapiens, UniProt Q8NER1)
Construct: expressed in transfected cells; host or cells: HEK293
Assay: Human VR1 [3H]RTX binding assay
Conditions: inhibition of [3H]RTX binding at 1 μM
Experimental: Compounds of the present invention were tested for their ability to inhibit the binding of tritiated resiniferatoxin ([^3H] RTX) to human VR1 receptors in a [^3H] […] Data were calculated according to the equation: % inhibtion=(total binding−binding)*100/(total binding−non specific binding). Ki values were calculated based on an average of duplicate measurements using a GraphPad Prism program.
Would you kindly list h Binding % I (1 μM) for each of these molecules?
Give bare numbers, in %.

Answered examples (5):
smiles-text	observed-measurement
Cc1cc(C)n(-c2ccc(NC(=O)CCc3ccc(C(C)(C)C)cc3)cc2)n1	76
NC(=O)c1cccc(-c2ccc(NC(=O)CCc3ccc(C(F)(F)F)cc3)cn2)c1	1
CC(C)(C)c1ccc(CCC(=O)Nc2ccc(-c3cccc(C(N)=O)c3)cc2CO)cc1	1
CC(C)(C)c1ccc(CCC(=O)Nc2cccc(-c3cncnc3)c2)cc1	1
O=C(CCc1ccc(C(F)(F)F)cc1)Nc1ccc(-c2ccncc2)c2cnccc12	1

From here, focus on the item given below.
Tell me h Binding % I (1 μM) reported for "CC(C)(C)c1ccc(CCC(=O)Nc2ccc(-c3cccc(O)c3)cc2CO)cc1"
1

====

Would you kindly list inhibition at 1 µM for each of these molecules?
target: human VR1 (Homo sapiens, UniProt Q8NER1); construct: expressed in transfected cells; host or cells: HEK293; test: Human VR1 functional assay (FLIPR intracellular Ca2+); format: cell-based; conditions: inhibition of capsaicin response, 1 μM; read-out: h % I (1 μM)
Give bare numbers, in %.

Answered examples (5):
smiles-text	observed-measurement
Cc1cn(-c2ccc(NC(=O)CCc3ccc(C(F)(F)F)cn3)cc2C(F)(F)F)cn1	98
Cc1cc(NC(=O)/C=C/c2ccc(N(C)C3CCCCC3)cc2)cnc1-n1cnc(Cl)c1Cl	92
Cc1cn(-c2ccc(NC(=O)CCc3ccc(C(F)(F)F)cc3)cc2C(F)(F)F)cn1	100
Cc1cc(NC(=O)CCc2ccc(C(C)(C)C)cc2)ccc1-c1ccc(CO)cc1	97
CC(C)(C)c1ccc(CCC(=O)Nc2ccc(-c3ccccn3)nc2)cc1	99

Give inhibition at 1 µM for each of the items listed below.
1. CC(C)(C)c1ccc(CCC(=O)Nc2cc(F)c(-c3ccncc3)c(F)c2)cc1
2. Cc1cc(NC(=O)CCc2ccc(C(C)(C)C)cc2)ccc1-c1ccc(O)cc1

1: 96; 2: 97

Give inhibition at 1 µM for each of the items listed below.
1. CC(C)(C)c1ccc(CCC(=O)Nc2ccc(-c3ccc(CO)cc3)c(F)c2)cc1
2. CC(C)(C)c1ccc(CCC(=O)Nc2ccc(-c3ccncc3)c(F)c2)cc1

1. 97
2. 80

====

Biological target: human VR1 (Homo sapiens)
Construct: expressed in transfected cells; host or cells: HEK293
Assay: Human VR1 functional assay (FLIPR intracellular Ca2+)
Format: cell-based
Conditions: inhibition of capsaicin response, 5 μM; read-out: h % I (5 μM)
Protocol: The functional activity of the test compounds was determined by measuring changes in intracellular calcium concentration using a Ca^2+-sensitive fluorescent dye and FLIPR™ technology. Increases in Ca^2+ concentration were readily detected upon challenge with capsaicin. […] EC50 or IC50 values were determined from dose-response studies. […]
Would you kindly list inhibition at 5 µM for each of these compounds?
Answers are plain numbers, in %.

Answered examples (3):
smiles-text	inhibition at 5 µM (%)
O=C(CCc1ccc(C(F)(F)F)cc1)Nc1ccc(-c2ccncc2)c(C(F)(F)F)c1	100
Cc1cc(NC(=O)CCc2ccc(C(C)(C)C)cc2)cc(C)c1-c1ccc(O)cc1	92
O=C(CCc1ccc(C(F)(F)F)cc1)Nc1ccc(-n2cnc(Cl)c2Cl)c(C(F)(F)F)c1	101

Tell me inhibition at 5 µM reported for "CC(C)(C)c1ccc(CCC(=O)Nc2cc(F)c(-c3cccnc3)c(F)c2)cc1"
95
